The values you see were collected from ChEMBL document CHEMBL5143581.

# Test system: Vero
# experiment_description: Cytotoxicity in African green monkey Vero cells assessed as reduction in cell viability
# Type: toxicity, cell-based
# condition_info: chlorocebus sabaeus
// reported Activity per item

These recorded examples may help you get a feel for the data.
Cc1ccc2c(c1)nc(NC(=O)c1cc(C(N)=S)ccn1)n2C | > 100 µM
Cn1ccnc1NC(=O)c1cc(C(N)=S)ccn1 | > 100 µM

Now look at this one.
Name the recorded Activity of O=C(O)c1cn(C2CC2)c2cc(N3CCNCC3)c(F)cc2c1=O , assay system Vero.
> 100 µM
